# Tested on: HT-29
# Test Protocol: NCI tumour cell line growth inhibition, 48 h
Active and inactive are the calls of the source. No stated cut-off is given here; in the data, active = GI50 up to about 1.1 µM and inactive = higher.

Compound	GI50
O=C(NC(Cc1c[nH]c2ccccc12)C(=O)Nc1ccc(Br)cc1)OCc1ccccc1 (centres undefined)	6.19 µM (inactive)
N#CC(C(=O)C(=O)NCCCNC(=O)C(=O)C(C#N)c1ccccc1)c1ccccc1 (centres undefined)	> 100 µM (inactive)
CC[C@]12C=CCN3CCC4(c5cc(/N=N/c6ccccc6)c(OC)cc5N(C)[C@H]4[C@@](O)(C(=O)OC)[C@@H]1OC(C)=O)[C@@H]32 (some centres undefined)	16.3 µM (inactive)
Cc1ccc2[nH]c3c(c2c1)CCC/C3=N/N=C(N)N	1.64 µM (inactive)
Fc1ccc(C(OCCN2CC3CC2CN3CCCc2ccccc2)c2ccc(F)cc2)cc1 (centres undefined)	3.85 µM (inactive)
O=c1cc(N2CCCC2)[nH]c(=O)n1-c1ccc(Cl)cc1	> 100 µM (inactive)
c1ccc(-c2cc(-c3cc(-c4ccccc4)n(-c4ccccc4)n3)nn2-c2ccccc2)cc1	> 100 µM (inactive)
O=C(Nc1ccc(C(F)(F)F)cc1[N+](=O)[O-])C(=O)C1NC(=S)NC1=O (centres undefined)	> 100 µM (inactive)
O=C1/C(=C/c2ccccc2S)N=C(c2ccccc2)N1c1ccc2c(c1)Sc1cc(N3C(=O)/C(=C/c4ccccc4S)N=C3c3ccccc3)ccc1N2	34.4 µM (inactive)

---

As shown below, each of these compounds has a reported GI50 value.
# Tested on: OVCAR-4
# Test Protocol: NCI tumour cell line growth inhibition, 48 h
Activity calls are given as the source filed them. No stated cut-off is given here; in the data, active = GI50 up to about 1.1 µM and inactive = higher.

Compound	GI50
CCC(CN(C)C)C(=O)c1ccco1 (stereo not given)	> 100 µM (inactive)
O=C(NCCCCCCCN1CCCCCCC1)C(C1CCCCC1)C1CCCCC1	9.38 µM (inactive)
O=C1C(NCCc2cc(Br)c(O)c(Br)c2)=CC(=O)c2ncccc21	6 µM (inactive)
COC(=O)CC(C)(N[S+]([O-])c1ccc(C)cc1)c1ccccc1 (stereo not given)	> 100 µM (inactive)
CC(C)(C)CC(C)(C)c1ccc(OCCOCC[N+](C)(C)Cc2ccccc2)cc1 [BENZETHONIUM CHLORIDE]	2.06 µM (inactive)
O=C(CNc1c(Cl)cccc1Cl)NC1C=Cc2ccc(S(=O)(=O)Nc3c(Cl)cccc3Cl)cc2C1=O (stereo not given)	> 100 µM (inactive)
Cc1ccc(S(=O)(=O)NCCCSCCN)cc1	> 100 µM (inactive)
CC(=O)ONC(C(=O)C(C)(C)C)C(=O)C(C)(C)C	> 100 µM (inactive)
O=S1(=O)CSc2ccc3ccccc3c2-c2c1ccc1ccccc21	> 100 µM (inactive)
Cn1cc(S(=O)(=O)NC(=O)Nc2ccc(Cl)cc2)c(=O)c2ccc(F)cc21	> 100 µM (inactive)
Clc1cc(Cl)cc(/C=N/C23CC4CC(CC(C4)C2)C3)c1	> 10 µM (inactive)
CN(C)c1ccc(/C=C2\N=C(c3ccccc3)N(c3nc4c(Cl)cc(Cl)cc4s3)C2=O)cc1	39.2 µM (inactive)
Cc1n[nH]c(=O)n1-n1cccc1	> 100 µM (inactive)
CCCCCCCCCCCCCCCCCCNc1ccn(C2OC(CO)C(OP(=O)(O)OCC(O)COP(=O)(O)OCC3OC(n4cc(F)c(NCCCCCCCCCCCCCCCCCC)nc4=O)CC3O)C2O)c(=O)n1 (stereo not given)	> 50 µM (inactive)
CC(C)=CCC/C(C)=C/CC/C(C)=C/Cc1c(O)c2ccccc2oc1=O	> 100 µM (inactive)
CC(C(=O)n1ccnc1)N1c2ccccc2Sc2ccccc21 (stereo not given)	> 100 µM (inactive)
Cc1c2n(c3ccccc13)CC1C2N(C)OC1(C)C (stereo not given)	> 100 µM (inactive)
CC[C@@H]1CC[C@@H]2[C@H](CC[C@]3(C)[C@@H](OS(=O)(=O)c4ccc(C)cc4)CC[C@@H]23)[C@H]1CO	> 100 µM (inactive)
COC(=O)C(Cc1ccccc1)NC(=O)CCCNC(=O)OCc1ccccc1 (stereo not given)	> 100 µM (inactive)
O=S(=O)(c1ccc(Br)cc1)N1CCN(S(=O)(=O)c2ccc(Br)cc2)CC1	> 100 µM (inactive)

---

# System: HCT-116
# Test Protocol: NCI tumour cell line growth inhibition, 48 h
Activity calls are given as the source filed them. Cut-off read from the data, not from the text of the source: active = GI50 up to about 1.1 µM and inactive = higher.
Measure: GI50

Compound	Experimental Result
CCOC(O)C(F)(F)F (stereo not given)	> 100 µM (inactive)
O=C(Cc1nc2ccccc2c(=O)n1-c1ccccc1Cl)c1ccncc1	> 100 µM (inactive)
C[N+](C)(C)CC(=O)N/N=C(\C(=O)NC1=C(Cl)C(=O)c2ccccc2C1=O)C(C#N)c1csc(-c2ccc([N+](=O)[O-])cc2)n1 (stereo not given)	> 100 µM (inactive)
COC1=CC(=O)C(C2CC(=O)c3c(O)cc(O)cc3O2)=CC1=O (stereo not given)	16.1 µM (inactive)
COC(=O)C1(Cc2ccc3c(c2)CCC3)Cc2ccc3c(c2C1)CCC3 (stereo not given)	18.1 µM (inactive)

---

# Test system: HCT-15
Residues, ends and D or L forms follow the SMILES beside them. *: point of attachment. Boc = CC(C)(C)OC(=O)*; OBn = c1ccc(CO*)cc1
Overview of reported GI50 across a group of compounds:

Compound	Subject Of Test	GI50
CC1=CC(O)CC(C)(C)C1/C=C/C(C)=C/C=C/C(C)=C/C=C/C=C(C)/C=C/C=C(C)/C=C/C1=C(C)CC(O)CC1(C)C (centres undefined)	HCT-15	19.7 µM
COc1ccc(Nc2nnc(-c3nsc4ccccc34)s2)cc1	HCT-15	62.8 µM
COc1ccc(/N=N/C(=N/NC(=O)c2ccccc2)c2ccc(N(CCC#N)CCC#N)cc2C)cc1	HCT-15	26.1 µM
CC1=N/C(=C\c2cccc([N+](=O)[O-])c2)C(=O)O1	HCT-15	> 100 µM
N#CC(CCN1CCC(Nc2ccccc2)(c2nnnn2C2CCCCC2)CC1)(c1ccccc1)c1ccccc1	HCT-15	> 100 µM
Nc1ccc2c(c1)C1=NNC(=O)CC1C2 (centres undefined)	HCT-15	> 100 µM
COc1cc([C@@H]2OC(=O)C3C2C(=O)O[C@H]3c2ccc(O)c(OC)c2)ccc1O (some centres undefined)	HCT-15	> 100 µM
CC(C)(C)C1=CC(=C(c2ccc(-c3c4nc(c(-c5ccc(C(=C6C=C(C(C)(C)C)C(=O)C(C(C)(C)C)=C6)c6cc(C(C)(C)C)c(O)c(C(C)(C)C)c6)cc5)c5ccc([nH]5)c(-c5ccc(C(=C6C=C(C(C)(C)C)C(=O)C(C(C)(C)C)=C6)c6cc(C(C)(C)C)c(O)c(C(C)(C)C)c6)cc5)c5nc(c(-c6ccc(C(=C7C=C(C(C)(C)C)C(=O)C(C(C)(C)C)=C7)c7cc(C(C)(C)C)c(O)c(C(C)(C)C)c7)cc6)c6ccc3[nH]6)C=C5)C=C4)cc2)c2cc(C(C)(C)C)c(O)c(C(C)(C)C)c2)C=C(C(C)(C)C)C1=O	HCT-15	> 100 µM
COc1cc2c(cc1OC)C(=O)C1(C2)[C@H](c2ccccc2)C2C(=O)c3cc(OC)c(OC)cc3C2[C@H]1c1ccccc1 (some centres undefined)	HCT-15	> 100 µM
CC1(C)OC2[C@@H](CO[C@@]3([C@@H](O)CCO)OC(C)(C)O[C@@H]23)O1 (some centres undefined)	HCT-15	> 100 µM
CCOC(=O)c1nc2cc(Cl)ccc2[nH]c1=O	HCT-15	> 100 µM
CCOC(=O)c1csc(NC(=O)CN2CCCC2)n1	HCT-15	> 100 µM
COc1ccccc1N1C(=O)/C(=C\c2cccc(Oc3ccccc3)c2)SC1c1ccccc1 (centres undefined)	HCT-15	47.2 µM
O=C(O)c1nccnc1C(=O)O	HCT-15	> 100 µM
CC(NC(=O)CNC(=O)OC(C)(C)C)C(=O)NC(Cc1ccccc1)C(=O)OCc1ccccc1 (stereo not drawn) (Boc-Gly-Ala-Phe-OBn; configuration not given here)	HCT-15	> 100 µM
C[C@H]1/C(=C/C(=O)OCCN(C)C)CC[C@H]2[C@H]1C(=O)C[C@H]1C(C)(C)[C@@H](O)CC[C@]21C	HCT-15	> 100 µM
COC(=O)N[C@H](C(=O)O)C(C)O[Si](C)(C)C(C)(C)C (some centres undefined)	HCT-15	> 100 µM
CS(=O)(=O)c1nc(-c2cc3c(c(S(C)(=O)=O)n2)CCC3)cc2c1CCC2	HCT-15	> 100 µM
CC(C)=CCC/C(C)=C/CC/C(C)=C/Cc1c(O)c2ccccc2oc1=O	HCT-15	69 µM
O=c1c(C(c2ccc(/C=C/c3ccccc3)cc2)c2c(O)oc3ccccc3c2=O)c(O)oc2ccccc12	HCT-15	44 µM
CCOC(=O)c1cn(-c2ccc([N+](=O)[O-])cc2)c(=S)n2c1nc1ccccc12	HCT-15	35.4 µM
CC(=O)/C(=C\C1=CCCO1)C(=O)Nc1ccccc1C	HCT-15	> 100 µM
COC(=O)C1(Cc2ccc3c(c2)CCC3)Cc2ccc3c(c2C1)CCC3 (centres undefined)	HCT-15	25 µM
CC[C@]12C=CCN3CCC4(c5cc(/N=N/c6ccccc6)c(OC)cc5N(C)[C@H]4[C@@](O)(C(=O)OC)[C@@H]1OC(C)=O)[C@@H]32 (some centres undefined)	HCT-15	17.3 µM
CC[C@@]1(O)C(=O)OCc2c1cc1n(c2=O)Cc2c-1nc1ccc(O)cc1c2[Si](C)(C)C(C)(C)C [AR-67]	HCT-15	0.122 µM
COc1cc(C(N)=O)c(OC)c(OC)c1OC	HCT-15	> 100 µM
c1ccc(-c2cc(-c3cc(-c4ccccc4)n(-c4ccccc4)n3)nn2-c2ccccc2)cc1	HCT-15	> 100 µM
O=C(/C=C/c1ccccc1)CCN1CCCCC1	HCT-15	22.6 µM
O=C1C[C@H](CCC(=O)OCc2ccccc2)NC(=O)C[C@H](CCC(=O)OCc2ccccc2)NC(=O)C[C@H](CCC(=O)OCc2ccccc2)N1	HCT-15	> 100 µM
CC(C)CC1c2[nH]c3ccccc3c2C[C@H]2C(=O)NC(COC(C)(C)C)C(=O)N12 (some centres undefined)	HCT-15	26.9 µM
CC(C)(C)OC(=O)NCCNCCNc1ccccc1	HCT-15	> 100 µM
Cc1ccc(S(=O)(=O)CN2C(=O)C(c3ccccc3)(c3ccccc3)C23OC(c2ccc(Cl)cc2)=CC3=O)cc1 (centres undefined)	HCT-15	> 10 µM
CN(C)CC1CCCC/C1=N/O (centres undefined)	HCT-15	> 100 µM
CC(C)=CCC/C(C)=C/CC/C(C)=C/CSc1ccc(Cl)cc1C(=O)O	HCT-15	20.4 µM
